Molecular target: T1, huMICA*002 alpha 3-his (human)
T1 construct: whole construct entry: GS, alpha 3 domain, GNS, His8; also called MICA002.His; MICA*002 alpha3 construct
T1 chain: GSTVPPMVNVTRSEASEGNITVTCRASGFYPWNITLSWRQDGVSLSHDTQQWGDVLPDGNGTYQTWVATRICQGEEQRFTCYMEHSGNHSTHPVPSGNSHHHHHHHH
Test: SPR, Biacore 8K, antibody on Protein A chip
pKd: −log10 of the molar value.
measure name: pKd

binder	measure name	val
1D5v9 (antibody, IgG1, V domains shown, humanized variant of 1D5) VH: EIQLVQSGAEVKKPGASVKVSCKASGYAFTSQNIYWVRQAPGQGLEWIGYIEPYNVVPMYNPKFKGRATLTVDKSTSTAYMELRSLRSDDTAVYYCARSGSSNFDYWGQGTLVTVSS VL: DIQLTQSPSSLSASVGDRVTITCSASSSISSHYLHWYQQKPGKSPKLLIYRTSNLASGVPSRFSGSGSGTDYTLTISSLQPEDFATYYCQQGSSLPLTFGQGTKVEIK	pKd	8.88
1D5v7 (antibody, IgG1, V domains shown, humanized variant of 1D5) VH: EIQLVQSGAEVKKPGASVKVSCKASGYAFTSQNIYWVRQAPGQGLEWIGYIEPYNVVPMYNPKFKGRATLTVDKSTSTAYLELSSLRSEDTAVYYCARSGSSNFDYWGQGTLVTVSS VL: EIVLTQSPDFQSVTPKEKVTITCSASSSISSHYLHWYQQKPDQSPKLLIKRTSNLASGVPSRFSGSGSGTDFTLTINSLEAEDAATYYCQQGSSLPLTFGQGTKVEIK	pKd	8.66
1D5v29 (antibody, IgG1, V domains shown, humanized variant of 1D5) VH: EIQLVQSGAEVKKPGASVKVSCKASGYAFTSQNIYWVRQAPGQGLEWIGYIEPYNVVPVYNPKFKGRATLTVDKSTSTAYLELSSLRSEDTAVYYCARSGSSNFDYWGQGTLVTVSS VL: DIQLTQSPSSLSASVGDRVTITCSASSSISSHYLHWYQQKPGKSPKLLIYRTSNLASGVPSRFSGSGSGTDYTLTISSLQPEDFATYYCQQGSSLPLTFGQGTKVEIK	pKd	8.70
1D5v6 (antibody, IgG1, V domains shown, humanized variant of 1D5) VH: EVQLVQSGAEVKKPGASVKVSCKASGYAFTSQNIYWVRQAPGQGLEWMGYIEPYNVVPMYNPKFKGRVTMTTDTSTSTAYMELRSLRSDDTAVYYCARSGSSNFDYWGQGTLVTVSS VL: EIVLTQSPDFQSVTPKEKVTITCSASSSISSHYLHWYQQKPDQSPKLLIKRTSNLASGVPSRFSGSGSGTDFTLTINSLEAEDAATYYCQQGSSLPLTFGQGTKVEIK	pKd	8.43
1D5v24 (antibody, IgG1, V domains shown, humanized variant of 1D5) VH: EVQLVQSGAEVKKPGASVKVSCKASGYAFTSQNIYWVRQAPGQGLEWIGYIEPYNVVPMYNPKFKGRVTITVDKSTSTAYLELSSLRSEDTAVYYCARSGSSNFDYWGQGTLVTVSS VL: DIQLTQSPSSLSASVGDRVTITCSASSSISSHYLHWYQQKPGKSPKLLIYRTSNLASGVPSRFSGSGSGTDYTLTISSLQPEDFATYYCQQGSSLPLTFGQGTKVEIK	pKd	8.92
